biological target: Indoleamine 2,3-dioxygenase (Homo sapiens); construct: endogenous in cells; test: SKOV-3 cellular Indoleamine 2,3-dioxygenase assay; conditions: SKOV-3 cells, 50 ng/ml Interferon gamma, 100 μM L-Tryptophan, 24 hours, N-Formylkynurenin fluorescence detection; read-out: cell based activity
Sequence (P14902 whole entry): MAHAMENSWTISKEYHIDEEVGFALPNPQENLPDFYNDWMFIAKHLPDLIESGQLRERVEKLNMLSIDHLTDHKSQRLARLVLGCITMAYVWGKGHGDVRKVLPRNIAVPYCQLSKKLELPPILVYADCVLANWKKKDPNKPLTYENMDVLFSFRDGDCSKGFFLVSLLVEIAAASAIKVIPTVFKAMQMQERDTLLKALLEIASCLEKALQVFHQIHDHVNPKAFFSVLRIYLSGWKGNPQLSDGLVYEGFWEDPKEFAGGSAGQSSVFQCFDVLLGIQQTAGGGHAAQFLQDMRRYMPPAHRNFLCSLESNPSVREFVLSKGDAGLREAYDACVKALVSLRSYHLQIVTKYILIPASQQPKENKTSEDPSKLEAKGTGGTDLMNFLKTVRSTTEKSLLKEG
pIC50: −log10 of the molar value.
outcomeMeasure: pIC50

molecule | outcomeMeasure | result
NS(=O)(=O)NCC[S+]([O-])c1nonc1C(=NO)Nc1ccc(F)c(Cl)c1 (centres unmarked) | pIC50 | < 6.00
O=C(NCCOc1nonc1C(=NO)Nc1ccc(F)c(Cl)c1)c1n[nH]c(=O)[nH]1 | pIC50 | < 6.00
NS(=O)(=O)CCC(=O)NCCSc1nonc1C(=NO)Nc1cccc(Cl)c1 | pIC50 | > 7.00
CC(C)(O)C(=O)NCCSc1nonc1C(=NO)Nc1ccc(F)c(C(F)F)c1 | pIC50 | > 7.00
CS(=O)(=O)CC(=O)NCCOc1nonc1C(=NO)Nc1ccc(F)c(Cl)c1 | pIC50 | > 7.00
NS(=O)(=O)CC(=O)NCCSc1nonc1/C(=N/O)Nc1cccc(C(F)F)c1 | pIC50 | > 7.00
NS(=O)(=O)NCCOc1nonc1/C(=N/O)Nc1ccc(F)c(Cl)c1 | pIC50 | > 7.00
NS(=O)(=O)NCCOc1nonc1/C(=N/O)Nc1ccc(F)c(Br)c1 | pIC50 | > 7.00

* * *

biological target: Indoleamine 2,3-dioxygenase (Homo sapiens); construct: endogenous in cells; experiment: SKOV-3 cellular Indoleamine 2,3-dioxygenase assay; settings: SKOV-3 cells, 50 ng/ml Interferon gamma, 100 μM L-Tryptophan, 24 hours, N-Formylkynurenin fluorescence detection; read-out: cell based activity
pIC50: −log10 of the molar value.

molecule | targetOrTestSystem | pIC50
Cn1nc(C(=O)NCCSc2nonc2C(=NO)Nc2cccc(C(F)(F)F)c2)[nH]c1=O | Indoleamine 2,3-dioxygenase (Homo sapiens) | 6.00 to 7.00
C[C@@H](CSc1nonc1C(=NO)Nc1ccc(F)c(C(F)F)c1)NC(=O)CS(N)(=O)=O (single isomer, unassigned) | Indoleamine 2,3-dioxygenase (Homo sapiens) | > 7.00
CC(C)(C)OC(=O)NC1(CC(=O)NCCSc2nonc2C(=NO)Nc2ccc(F)c(C(F)F)c2)COC1 | Indoleamine 2,3-dioxygenase (Homo sapiens) | > 7.00
O=C(NCCOc1nonc1C(=NO)Nc1ccc(F)c(Cl)c1)c1ccc(F)cc1 | Indoleamine 2,3-dioxygenase (Homo sapiens) | 6.00 to 7.00
NS(=O)(=O)NCC(=O)NCCSc1nonc1/C(=N/O)Nc1ccc(F)c(C(F)F)c1 | Indoleamine 2,3-dioxygenase (Homo sapiens) | > 7.00
C[C@@H](CSc1nonc1/C(=N/O)Nc1ccc(F)c(Br)c1)NC(=O)CS(N)(=O)=O (single isomer, unassigned) | Indoleamine 2,3-dioxygenase (Homo sapiens) | > 7.00
NC(=O)CS(=O)(=O)NCCSc1nonc1C(=NO)Nc1ccc(F)c(C(F)F)c1 | Indoleamine 2,3-dioxygenase (Homo sapiens) | > 7.00
CC1(C(=O)NCCSc2nonc2C(=NO)Nc2ccc(F)c(C(F)F)c2)CNC1 | Indoleamine 2,3-dioxygenase (Homo sapiens) | > 7.00
O=C(NCCSc1nonc1C(=NO)Nc1ccc(F)c(C(F)F)c1)c1ccc(-n2cnnn2)cc1 | Indoleamine 2,3-dioxygenase (Homo sapiens) | > 7.00
C[S+]([O-])NCCOc1nonc1C(=NO)Nc1ccc(F)c(Cl)c1 (centres unmarked) | Indoleamine 2,3-dioxygenase (Homo sapiens) | 6.00 to 7.00
NC(=O)CC(=O)NCCOc1nonc1C(=NO)Nc1ccc(F)c(Cl)c1 | Indoleamine 2,3-dioxygenase (Homo sapiens) | > 7.00
O/N=C(\Nc1ccc(F)c(Br)c1)c1nonc1OCC(F)(F)F | Indoleamine 2,3-dioxygenase (Homo sapiens) | 6.00 to 7.00
CS(=O)(=O)CCCOc1nonc1C(=NO)Nc1ccc(F)c(Cl)c1 | Indoleamine 2,3-dioxygenase (Homo sapiens) | 6.00 to 7.00
CC(C)(C)OC(=O)NC1(C(=O)NCCOc2nonc2C(=NO)Nc2ccc(F)c(Cl)c2)CC1(F)F (centres unmarked) | Indoleamine 2,3-dioxygenase (Homo sapiens) | < 6.00
NC(=O)CC(=O)NCCSc1nonc1C(=NO)Nc1cccc(C(F)F)c1 | Indoleamine 2,3-dioxygenase (Homo sapiens) | > 7.00
NS(=O)(=O)N1CC(O)(C(=O)NCCSc2nonc2C(=NO)Nc2ccc(F)c(C(F)F)c2)C1 | Indoleamine 2,3-dioxygenase (Homo sapiens) | > 7.00
O=C(NCCCOc1nonc1C(=NO)Nc1ccc(F)c(Cl)c1)c1nn[nH]n1 | Indoleamine 2,3-dioxygenase (Homo sapiens) | < 6.00
NS(=O)(=O)CC(=O)NCCSc1nonc1C(=NO)Nc1cncc(C(F)(F)F)c1 | Indoleamine 2,3-dioxygenase (Homo sapiens) | < 6.00
CS(=N)(=O)CC(=O)NCCSc1nonc1C(=NO)Nc1cccc(Br)c1 (centres unmarked) | Indoleamine 2,3-dioxygenase (Homo sapiens) | > 7.00
CNS(=O)(=O)N(C)CCOc1nonc1C(=NO)Nc1ccc(F)c(Cl)c1 | Indoleamine 2,3-dioxygenase (Homo sapiens) | 6.00 to 7.00
NS(=O)(=O)CC(=O)NCCSc1nonc1/C(=N/O)Nc1cccc(Cl)c1 | Indoleamine 2,3-dioxygenase (Homo sapiens) | > 7.00
CS(=N)(=O)c1ccc(C(=O)NCCSc2nonc2C(=NO)Nc2ccc(F)c(C(F)F)c2)cc1 (centres unmarked) | Indoleamine 2,3-dioxygenase (Homo sapiens) | > 7.00
CS(=O)(=O)c1ccc(C(=O)NCCSc2nonc2C(=NO)Nc2ccc(F)c(C(F)F)c2)cc1 | Indoleamine 2,3-dioxygenase (Homo sapiens) | > 7.00
CS(=O)(=O)NCCSc1nonc1/C(=N/O)Nc1ccc(F)c(Br)c1 | Indoleamine 2,3-dioxygenase (Homo sapiens) | > 7.00
Nc1c(NCCOc2nonc2C(=NO)Nc2cccc(C(F)F)c2)c(=O)c1=O | Indoleamine 2,3-dioxygenase (Homo sapiens) | 6.00 to 7.00
O=C(NCCSc1nonc1C(=NO)Nc1ccc(F)c(Cl)c1)c1n[nH]c(=O)[nH]1 | Indoleamine 2,3-dioxygenase (Homo sapiens) | 6.00 to 7.00
O=C(O)C1CN(CCSc2nonc2C(=NO)Nc2ccc(F)c(C(F)F)c2)C1 | Indoleamine 2,3-dioxygenase (Homo sapiens) | < 6.00
C[C@@H](CSc1nonc1C(=NO)Nc1ccc(F)c(C(F)F)c1)NC(=O)CCS(N)(=O)=O (single isomer, unassigned) | Indoleamine 2,3-dioxygenase (Homo sapiens) | > 7.00
O=C(NCCOc1nonc1C(=NO)Nc1ccc(F)c(Cl)c1)C1(F)CNC1 | Indoleamine 2,3-dioxygenase (Homo sapiens) | 6.00 to 7.00
